# System: Active Human ERK2 (hERK2) (Homo sapiens (Human))
# Sequence (P28482 whole entry): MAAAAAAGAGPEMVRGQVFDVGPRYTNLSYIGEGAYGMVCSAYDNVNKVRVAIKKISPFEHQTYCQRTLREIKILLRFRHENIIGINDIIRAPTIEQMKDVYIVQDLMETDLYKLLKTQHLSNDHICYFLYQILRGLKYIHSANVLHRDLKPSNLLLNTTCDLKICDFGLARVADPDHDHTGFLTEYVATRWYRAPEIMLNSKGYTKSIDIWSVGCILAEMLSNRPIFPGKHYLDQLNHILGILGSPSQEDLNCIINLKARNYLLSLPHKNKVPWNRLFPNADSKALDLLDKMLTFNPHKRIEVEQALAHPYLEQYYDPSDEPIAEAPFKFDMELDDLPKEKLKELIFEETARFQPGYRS
# Experiment Summary: Active Human ERK2 (hERK2) Activity Assay (IMAP-FP)
# Assay type: biochemical
# Assay Conditions: phosphorylated active hERK2, 30 μM ATP; average; read-out: ERK 2 Human average IC50
IC50 less than 2 nM is 1; IC50 greater than or equal to 2 nM is -1.

- C[C@@H](NC(=O)Nc1cc2[nH]nc(C3CC3)c2cn1)c1ccc(Cl)cc1 [Example 150]: -1

Enquiry: I'd appreciate it if you could check whether COc1ncc(-c2n[nH]c3cc(NC(=O)N[C@@H]4CCCOc5ccccc54)ncc23)cn1 [Example 312] has IC50 smaller than 2 nM.
Return: 1

Enquiry: I'd appreciate it if you could check whether COCCOC[C@@H](NC(=O)Nc1cc2[nH]nc(C(F)F)c2cn1)c1ccccc1 [Example 694] has IC50 smaller than 2 nM.
Return: -1

Enquiry: I'd appreciate it if you could check whether Cc1cc(-c2n[nH]c3cc(NC(=O)NCc4c(C)cccc4Cl)ncc23)ccn1 [Example 444] has IC50 smaller than 2 nM.
Return: 1
